biological target: STING WT variant (Homo sapiens); construct: host or cells: HEK-Blue ISG KO-STING cells (Invivogen, hkb-kostg); experiment: SEAP reporter assay in HEK-Blue ISG KO-STING cells transfected with STING WT variant (Method 1); type: cell-based; conditions: 1 ng STING vector, compound 2.5 uM, 24 h, SEAP signal vs 0.5% DMSO
Would you mind telling me the reported Fold change related to DMSO control WT of each entry?
Could you respond with only the numeric value?

Query: Request the reported Fold change related to DMSO control WT associated with CCn1nc(C)cc1C(=O)Nc1nc2cc(C(N)=O)cc(OCCCN(C)C(C)=O)c2n1CCC[C@H]1COc2cc(C(N)=O)cc3nc(NC(=O)c4cc(C)nn4CC)n1c23 [Example 27]
Result: 2.22

Query: What Fold change related to DMSO control WT value was documented for this molecule, CCn1nc(C)cc1C(=O)Nc1nc2cc(C(N)=O)cc(OCCCN(C)C(=O)CN3CCOCC3)c2n1CCC[C@H]1COc2cc(C(N)=O)cc3nc(NC(=O)c4cc(C)nn4CC)n1c23 [Example 29] ?
Result: 1.99

Query: Tell me the measured Fold change related to DMSO control WT of CCn1nc(C)cc1C(=O)Nc1nc2cc(C(N)=O)cc(OCCCOC)c2n1CCC[C@H]1COc2cc(C(N)=O)cc3nc(NC(=O)c4c(Br)c(C)nn4CC)n1c23 [Example 9] , please.
Result: 2.27
